# assay_comment: Protease stability in simulated intestinal fluids (FaSSIF) (Table 7)
# Assay type: in vitro ADME
# reported_conditions: fassif with pancreatin, 60 min, 37° C., read-out: Remaining percentage of peptide compound, FaSSIF 60 (min)
Numbered stars: 1 amine (or outer) side, 2 acyl side, 3 side chain; on linkers, the order of the positions; unused ones are H or OH. Bridge positions count the residues as written; N and C are the ends. Square brackets hold non-standard residues; d marks the D form. Peptide text beside a SMILES is read from it. * marks the point of attachment. Lys(Me,(CH2)4NMe(CH2)4CO) = CN(CCCCC(=O)[*:3])CCCCN(C)CCCC[C@H](N[*:1])C(=O)[*:2]; X2 = O=C(Cc1ccc(-c2ccc(CC(=O)[*:2])cc2)cc1)[*:1]; Trp(7-Me) = Cc1cccc2c(C[C@H](N)C(=O)O)c[nH]c12; 2Nal = N[C@@H](Cc1ccc2ccccc2c1)C(=O)O; 3Pal = N[C@@H](Cc1cccnc1)C(=O)O; Thp = NC1(C(=O)O)CCOCC1; Me2NCH2CH2 = CN(C)CC*; Aib = CC(C)(N)C(=O)O; Sar = CNCC(=O)O
endpoint: remaining at 1 h, 1 µM (%)
State the answer as a number, implicitly in %.

| molecule | remaining at 1 h, 1 µM (%) |
| --- | --- |
| CN(C)CCOc1ccc(C[C@@H]2NC(=O)C3(CCOCC3)NC(=O)[C@H](CCC(N)=O)NC(=O)[C@H](Cc3c[nH]c4ccccc34)NC(=O)CCCCN(C)CCCCN(C)CCCC[C@@H](C(=O)N[C@@H](CO)C(=O)N[C@@H](Cc3cccnc3)C(=O)N(C)CC(N)=O)NC(=O)C(C)(C)NC(=O)[C@H](Cc3ccc4ccccc4c3)NC2=O)cc1 [compound 41] (WQ[Thp]Y(Me2NCH2CH2)[2Nal][Aib][Lys(Me,(CH2)4NMe(CH2)4CO)]S[3Pal][Sar]-NH2; lactam N-7) | 93 |

Please turn your attention to the following entry.
# lookup: remaining at 1 h, 1 µM of Cc1cccc2c(C[C@@H]3NC(=O)Cc4ccc(cc4)-c4ccc(cc4)CC(=O)NCCCC[C@@H](C(=O)N[C@@H](CC(N)=O)C(=O)N[C@@H](Cc4cccnc4)C(=O)N(C)CC(N)=O)NC(=O)C(C)(C)NC(=O)[C@H](Cc4ccc5ccccc5c4)NC(=O)[C@H](Cc4ccc(OCCN(C)C)cc4)NC(=O)C4(CCOCC4)NC(=O)[C@H](CCC(N)=O)NC3=O)c[nH]c12 [compound 15] ([Trp(7-Me)]Q[Thp]Y(Me2NCH2CH2)[2Nal][Aib]KN[3Pal][Sar]-NH2; linker N-7 via X2) 74

====

# Test system: IL-23 induced STAT3 signaling (IL-23 receptor) in HEK-Blue IL-23 cells
# assay_comment: Inhibition of IL-23 induced STAT3 signaling in HEK-Blue IL-23 cells, SEAP reporter (Table 9)
# Format: cell-based
# reported_conditions: human IL23 0.25 ng/ml, overnight, read-out: Inhibition of IL-23 induced pSTAT3 (IC50 nM)
# Text: HEK-Blue™ IL-23 cells (INVIVOGEN) are designed for the detection of bioactive human (hIL-23) and murine IL-23 (mIL-23) by monitoring the activation of the STAT3 pathway. Binding of IL-23 to its receptor on the surface of HEK-Blue™ IL-23 cells triggers a signaling cascade leading to the activation of STAT3 and the subsequent production of secreted embryonic alkaline phosphatase (SEAP). This can be readily assessed using QUANTI-Blue™ Solution, a SEAP detection reagent. […]
Numbered stars: 1 amine (or outer) side, 2 acyl side, 3 side chain; on linkers, the order of the positions; unused ones are H or OH. Bridge positions count the residues as written; N and C are the ends. Square brackets hold non-standard residues; d marks the D form. Peptide text beside a SMILES is read from it. * marks the point of attachment. Lys(Me,(CH2)4NMe(CH2)5CO) = CN(CCCCCC(=O)[*:3])CCCCN(C)CCCC[C@H](N[*:1])C(=O)[*:2]; Lys(Me,(CH2)4NMe(CH2)4CO) = CN(CCCCC(=O)[*:3])CCCCN(C)CCCC[C@H](N[*:1])C(=O)[*:2]; X2 = O=C(Cc1ccc(-c2ccc(CC(=O)[*:2])cc2)cc1)[*:1]; Trp(7-Me) = Cc1cccc2c(C[C@H](N)C(=O)O)c[nH]c12; Trp(1-Me) = Cn1cc(C[C@H](N)C(=O)O)c2ccccc21; Sebacoyl = O=C(CCCCCCCCC(=O)[*:2])[*:1]; αMeLys(Me2) = CN(C)CCCC[C@](C)(N)C(=O)O; 2Nal = N[C@@H](Cc1ccc2ccccc2c1)C(=O)O; 3Pal = N[C@@H](Cc1cccnc1)C(=O)O; Lys(Me) = CNCCCC[C@H](N)C(=O)O; Thp = NC1(C(=O)O)CCOCC1; Me2NCH2CH2 = CN(C)CC*; Aib = CC(C)(N)C(=O)O; Aoc = NCCCCCCCC(=O)O; Sar = CNCC(=O)O
endpoint: IC50 (nM)
State the answer as a number, implicitly in nM.

| compound | IC50, nM |
| --- | --- |
| Cc1cccc2c(C[C@@H]3NC(=O)CCCCCCCCC(=O)N(C)CCCC[C@@H](C(=O)N[C@@H](CC(N)=O)C(=O)N[C@@H](Cc4cccnc4)C(=O)N(C)CC(N)=O)NC(=O)C(C)(C)NC(=O)[C@H](Cc4ccc5ccccc5c4)NC(=O)[C@H](Cc4ccc(OCCN(C)C)cc4)NC(=O)C4(CCOCC4)NC(=O)[C@H](CCC(N)=O)NC3=O)c[nH]c12 [compound 19] ([Trp(7-Me)]Q[Thp]Y(Me2NCH2CH2)[2Nal][Aib][Lys(Me)]N[3Pal][Sar]-NH2; linker N-7 via Sebacoyl) | 0.24 |
| CN(C)CCOc1ccc(C[C@@H]2NC(=O)C3(CCOCC3)NC(=O)[C@H](CCC(N)=O)NC(=O)[C@H](Cc3cn(C)c4ccccc34)NC(=O)CCCCCN(C)CCCCN(C)CCCC[C@@H](C(=O)N[C@@H](CC(N)=O)C(=O)N[C@@H](Cc3cccnc3)C(=O)N(C)CC(N)=O)NC(=O)C(C)(C)NC(=O)[C@H](Cc3ccc4ccccc4c3)NC2=O)cc1 [compound 33] ([Trp(1-Me)]Q[Thp]Y(Me2NCH2CH2)[2Nal][Aib][Lys(Me,(CH2)4NMe(CH2)5CO)]N[3Pal][Sar]-NH2; lactam N-7) | 0.8 |
| Cc1cccc2c(C[C@@H]3NC(=O)CCCCCCCNC(=O)CC[C@@H](C(=O)N[C@@H](CC(N)=O)C(=O)N[C@@H](Cc4cccnc4)C(=O)N(C)CC(N)=O)NC(=O)C(C)(C)NC(=O)[C@H](Cc4ccc5ccccc5c4)NC(=O)[C@H](Cc4ccc(OCCN(C)C)cc4)NC(=O)C4(CCOCC4)NC(=O)[C@H](CC(C)C)NC3=O)c[nH]c12 [compound 9] ([Aoc][Trp(7-Me)]L[Thp]Y(Me2NCH2CH2)[2Nal][Aib]EN[3Pal][Sar]-NH2; lactam N-8) | 10.8 |

# lookup: IC50 of Cc1cccc2c(C[C@@H]3NC(=O)Cc4ccc(cc4)-c4ccc(cc4)CC(=O)NCCCC[C@@H](C(=O)N[C@@H](CC(N)=O)C(=O)N[C@@H](Cc4cccnc4)C(=O)N(C)CC(N)=O)NC(=O)C(C)(C)NC(=O)[C@H](Cc4ccc5ccccc5c4)NC(=O)[C@H](Cc4ccc(OCCN(C)C)cc4)NC(=O)C4(CCOCC4)NC(=O)[C@H](CCC(N)=O)NC3=O)c[nH]c12 [compound 15] ([Trp(7-Me)]Q[Thp]Y(Me2NCH2CH2)[2Nal][Aib]KN[3Pal][Sar]-NH2; linker N-7 via X2) 12

# lookup: IC50 of CC(=O)NCCCC[C@@H]1NC(=O)[C@H](Cc2c[nH]c3c(C)cccc23)NC(=O)CCCCN(C)CCCCN(C)CCCC[C@@H](C(=O)N[C@@H](CC(N)=O)C(=O)N[C@@H](Cc2cccnc2)C(=O)N(C)CC(N)=O)NC(=O)[C@](C)(CCCCN(C)C)NC(=O)[C@H](Cc2ccc3ccccc3c2)NC(=O)[C@H](Cc2ccc(OCCN(C)C)cc2)NC(=O)C2(CCOCC2)NC1=O [compound 47] ([Trp(7-Me)]K(Ac)[Thp]Y(Me2NCH2CH2)[2Nal][αMeLys(Me2)][Lys(Me,(CH2)4NMe(CH2)4CO)]N[3Pal][Sar]-NH2; lactam N-7) 1.2

# lookup: IC50 of CC(=O)NCCCC[C@@H]1NC(=O)[C@H](Cc2c[nH]c3ccccc23)NC(=O)CCCCN(C)CCCCN(C)CCCC[C@@H](C(=O)N[C@@H](CO)C(=O)N[C@@H](Cc2cccnc2)C(=O)N(C)CC(N)=O)NC(=O)C(C)(C)NC(=O)[C@H](Cc2ccc3ccccc3c2)NC(=O)[C@H](Cc2ccc(OCCN(C)C)cc2)NC(=O)C2(CCOCC2)NC1=O [compound 42] (WK(Ac)[Thp]Y(Me2NCH2CH2)[2Nal][Aib][Lys(Me,(CH2)4NMe(CH2)4CO)]S[3Pal][Sar]-NH2; lactam N-7) 4.37

# lookup: IC50 of CN(C)CCOc1ccc(C[C@@H]2NC(=O)C3(CCOCC3)NC(=O)[C@H](CCC(N)=O)NC(=O)[C@H](Cc3cn(C)c4ccccc34)NC(=O)CCCCN(C)CCCCN(C)CCCC[C@@H](C(=O)N[C@@H](CO)C(=O)N[C@@H](Cc3cccnc3)C(=O)N(C)CC(N)=O)NC(=O)C(C)(C)NC(=O)[C@H](Cc3ccc4ccccc4c3)NC2=O)cc1 [compound 40] ([Trp(1-Me)]Q[Thp]Y(Me2NCH2CH2)[2Nal][Aib][Lys(Me,(CH2)4NMe(CH2)4CO)]S[3Pal][Sar]-NH2; lactam N-7) 2.26

# lookup: IC50 of CN(C)CCOc1ccc(C[C@@H]2NC(=O)C3(CCOCC3)NC(=O)[C@H](CCC(N)=O)NC(=O)[C@H](Cc3c[nH]c4ccccc34)NC(=O)CCCCN(C)CCCCN(C)CCCC[C@@H](C(=O)N[C@@H](CO)C(=O)N[C@@H](Cc3cccnc3)C(=O)N(C)CC(N)=O)NC(=O)C(C)(C)NC(=O)[C@H](Cc3ccc4ccccc4c3)NC2=O)cc1 [compound 41] (WQ[Thp]Y(Me2NCH2CH2)[2Nal][Aib][Lys(Me,(CH2)4NMe(CH2)4CO)]S[3Pal][Sar]-NH2; lactam N-7) 4

# lookup: IC50 of CN(C)CCCC[C@]1(C)NC(=O)[C@H](Cc2ccc3ccccc3c2)NC(=O)[C@H](Cc2ccc(OCCN(C)C)cc2)NC(=O)C2(CCOCC2)NC(=O)[C@H](CCC(N)=O)NC(=O)[C@H](Cc2cn(C)c3ccccc23)NC(=O)CCCCN(C)CCCCN(C)CCCC[C@@H](C(=O)N[C@@H](CO)C(=O)N[C@@H](Cc2cccnc2)C(=O)N(C)CC(N)=O)NC1=O [compound 45] ([Trp(1-Me)]Q[Thp]Y(Me2NCH2CH2)[2Nal][αMeLys(Me2)][Lys(Me,(CH2)4NMe(CH2)4CO)]S[3Pal][Sar]-NH2; lactam N-7) 7.83
